The origin of these recorded values is patent US20230151003A1.

target.entity: KDR (Homo sapiens, UniProt P35968)
Sequence (P35968 790-1356): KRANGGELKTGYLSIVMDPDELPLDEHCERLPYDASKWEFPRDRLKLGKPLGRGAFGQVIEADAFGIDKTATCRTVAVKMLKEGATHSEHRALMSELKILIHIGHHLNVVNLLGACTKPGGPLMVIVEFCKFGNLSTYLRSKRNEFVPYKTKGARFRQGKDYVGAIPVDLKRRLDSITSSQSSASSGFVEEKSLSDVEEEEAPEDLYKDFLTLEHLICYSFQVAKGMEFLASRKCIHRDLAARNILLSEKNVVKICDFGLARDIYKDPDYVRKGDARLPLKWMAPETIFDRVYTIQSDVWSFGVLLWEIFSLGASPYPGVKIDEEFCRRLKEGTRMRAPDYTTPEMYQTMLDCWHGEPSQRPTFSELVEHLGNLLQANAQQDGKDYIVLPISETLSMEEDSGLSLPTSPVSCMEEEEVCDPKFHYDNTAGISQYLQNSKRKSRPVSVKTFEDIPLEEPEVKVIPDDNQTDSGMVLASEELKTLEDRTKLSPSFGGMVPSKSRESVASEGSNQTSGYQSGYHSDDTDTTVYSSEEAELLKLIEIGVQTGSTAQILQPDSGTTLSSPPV
protocol.description: Human KDR kinase assay (HTRF KinEase)
Assay type: biochemical
Set-up: Human KDR (residues 790-1356; CarnaBio, 0.1 ng/ well); purchased CarnaBio
condition.info: Table 2 Biological Activities, ATP at Km (4.0 μM)
Documented IC50 across a set of molecules

Example results:
>>> measured_result("COc1cc2nccc(Oc3ccc(NC(=O)c4c(C)n(C)cc(-c5ccc(F)cn5)c4=O)cc3F)c2nc1OC")
"300 to 1000 nM"
>>> measured_result("Cc1ccc(C(=O)Nc2ccc(Oc3ccnc4cccnc34)c(F)c2)c(=O)n1-c1ccc(F)cn1")
"300 to 1000 nM"
>>> measured_result("COc1cc2nccc(Oc3ccc(NC(=O)c4ccc(C)n(-c5ccc(F)cn5)c4=O)cc3)c2nc1OC")
"≤ 100 nM"
>>> measured_result("Cc1ccc(C(=O)Nc2ccc(Oc3ccnc4cnc(Cl)cc34)c(F)c2)c(=O)n1-c1ccc(F)cn1 [Compound 54A]")
"300 to 1000 nM"
>>> measured_result("COCCOc1cc2nccc(Oc3ccc(NC(=O)c4ccc(C)n(-c5ccc(F)cn5)c4=O)cc3F)c2nc1OC")
"≤ 100 nM"
>>> measured_result("COc1cnc2c(Oc3ccc(NC(=O)c4ccc(C)n(-c5ncc(F)cc5C)c4=O)cc3F)ccnc2c1")
"300 to 1000 nM"

Provide the reported IC50 (system: KDR (Homo sapiens, UniProt P35968)) for COc1ccc2nccc(Oc3ccc(NC(=O)c4ccc(C)n(-c5ccc(F)cn5)c4=O)cc3F)c2n1
300 to 1000 nM

Provide the reported IC50 (system: KDR (Homo sapiens, UniProt P35968)) for COc1cc2nccc(Oc3ccc(NC(=O)c4cc(C(C)=O)c(C)n(-c5ccc(F)cn5)c4=O)cc3F)c2nc1OC
300 to 1000 nM

Provide the reported IC50 (system: KDR (Homo sapiens, UniProt P35968)) for COc1cc2nccc(Oc3ccc(NC(=O)c4c(C)ccn(-c5ccc(F)cn5)c4=O)cc3F)c2nc1OC
≤ 100 nM

Provide the reported IC50 (system: KDR (Homo sapiens, UniProt P35968)) for COc1cc2nccc(Oc3ccc(NC(=O)c4cn(C)c(C)c(-c5ccc(F)cn5)c4=O)cc3)c2nc1OC
300 to 1000 nM

Provide the reported IC50 (system: KDR (Homo sapiens, UniProt P35968)) for COc1ccc2nccc(Oc3ccc(NC(=O)c4ccc(C)n(-c5ncc(F)cc5C)c4=O)cc3F)c2n1
300 to 1000 nM

Provide the reported IC50 (system: KDR (Homo sapiens, UniProt P35968)) for COc1cc2nccc(Oc3ccc(NC(=O)c4cccn(-c5ccc(F)cn5)c4=O)cc3F)c2nc1OC
≤ 100 nM

Provide the reported IC50 (system: KDR (Homo sapiens, UniProt P35968)) for COc1cc2nccc(Oc3ccc(NC(=O)c4c(C)n(C)cc(-c5ccc(F)cn5)c4=O)cc3)c2nc1OC
300 to 1000 nM

Provide the reported IC50 (system: KDR (Homo sapiens, UniProt P35968)) for COc1cnc2c(Oc3ccc(NC(=O)c4c(C)ncc(-c5ccccn5)c4O)cc3F)ccnc2c1
≤ 100 nM

Provide the reported IC50 (system: KDR (Homo sapiens, UniProt P35968)) for COc1cc2nccc(Oc3ccc(NC(=O)c4ccc(C)n(-c5ncc(F)cc5C)c4=O)cc3F)c2nc1OC
100 to 300 nM

Provide the reported IC50 (system: KDR (Homo sapiens, UniProt P35968)) for COc1ccc2nccc(Oc3ccc(NC(=O)c4ccc(C)n(-c5ccc(F)cn5)c4=O)cc3F)c2c1
100 to 300 nM
